Study target: Phosphatidylinositol 4,5-bisphosphate 3-kinase catalytic subunit alpha isoform (Homo sapiens)
Sequence (P42336 whole entry, canonical isoform): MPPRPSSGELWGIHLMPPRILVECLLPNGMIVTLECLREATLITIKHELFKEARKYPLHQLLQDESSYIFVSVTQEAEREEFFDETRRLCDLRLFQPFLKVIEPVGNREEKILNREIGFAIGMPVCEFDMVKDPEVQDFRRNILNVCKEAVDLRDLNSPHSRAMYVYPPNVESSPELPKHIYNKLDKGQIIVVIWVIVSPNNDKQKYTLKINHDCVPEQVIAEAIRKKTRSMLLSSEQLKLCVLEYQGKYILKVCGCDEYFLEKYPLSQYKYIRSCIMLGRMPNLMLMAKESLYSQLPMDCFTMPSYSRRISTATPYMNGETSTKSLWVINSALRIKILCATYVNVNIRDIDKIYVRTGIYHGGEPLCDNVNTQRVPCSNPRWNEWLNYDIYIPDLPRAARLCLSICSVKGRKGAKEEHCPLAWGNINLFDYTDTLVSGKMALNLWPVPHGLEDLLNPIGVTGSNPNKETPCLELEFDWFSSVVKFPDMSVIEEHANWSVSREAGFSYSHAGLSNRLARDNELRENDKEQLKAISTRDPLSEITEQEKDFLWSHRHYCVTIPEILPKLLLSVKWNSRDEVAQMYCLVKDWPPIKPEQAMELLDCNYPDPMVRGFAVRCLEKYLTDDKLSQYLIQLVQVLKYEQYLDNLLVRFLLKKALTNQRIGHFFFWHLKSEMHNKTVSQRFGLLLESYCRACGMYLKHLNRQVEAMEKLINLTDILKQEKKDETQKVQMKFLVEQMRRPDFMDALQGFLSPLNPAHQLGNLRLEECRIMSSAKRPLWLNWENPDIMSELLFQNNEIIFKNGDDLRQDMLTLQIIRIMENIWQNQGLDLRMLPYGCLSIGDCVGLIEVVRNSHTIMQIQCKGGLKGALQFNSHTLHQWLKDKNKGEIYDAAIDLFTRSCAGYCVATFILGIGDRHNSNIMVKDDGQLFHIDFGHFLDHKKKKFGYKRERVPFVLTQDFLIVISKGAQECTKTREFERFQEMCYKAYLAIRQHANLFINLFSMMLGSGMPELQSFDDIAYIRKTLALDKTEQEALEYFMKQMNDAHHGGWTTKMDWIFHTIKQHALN
Measurement notes: Inhibition of PI3Kalpha (unknown origin)
Endpoint: IC50

In [3]: df
Out[3]:
                        structure_as_smiles  endpoint  observed_result
0  CC(C)(O)c1ccc(-c2cnc3c(n2)N(CC2CCOCC2)CC(=O)N3)cn1      IC50          > 30 µM

---

Study target: mTORC1 (Homo sapiens, UniProt P42345+Q8N122+Q9BVC4)
Measurement notes: Inhibition of mTORC1 in human PC-3 cells assessed as measuring phosphorylated S6K level incubated for 24 hrs by AlphaLISA assay
Format: cell-based
pIC50: −log10 of the molar value.
The entries below come with measured pIC50 values attached.
Endpoint: pIC50

Compound	Observed result
CO[C@@H]1C[C@H](C[C@@H](C)[C@@H]2CC(=O)[C@H](C)/C=C(\C)[C@@H](O)[C@@H](OC)C(=O)[C@H](C)C[C@H](C)/C=C/C=C/C=C(\C)C(OCCO)C[C@@H]3CC[C@@H](C)[C@@](O)(O3)C(=O)C(=O)N3CCCC[C@H]3C(=O)O2)CC[C@H]1OC(=O)NCCc1ccccc1 (stereo partly drawn)	> 9.50
CO[C@@H]1C[C@H](C[C@@H](C)[C@@H]2CC(=O)[C@H](C)/C=C(\C)[C@@H](O)[C@@H](OC)C(=O)[C@H](C)C[C@H](C)/C=C/C=C/C=C(\C)C(OCCO)C[C@@H]3CC[C@@H](C)[C@@](O)(O3)C(=O)C(=O)N3CCCC[C@H]3C(=O)O2)CC[C@H]1OCCCN1C[C@@H](C)O[C@@H](C)C1 (stereo partly drawn)	> 9.50
CO[C@@H]1C[C@H](C[C@@H](C)[C@@H]2CC(=O)[C@H](C)/C=C(\C)[C@@H](O)[C@@H](OC)C(=O)[C@H](C)C[C@H](C)/C=C/C=C/C=C(\C)C(OCCO)C[C@@H]3CC[C@@H](C)[C@@](O)(O3)C(=O)C(=O)N3CCCC[C@H]3C(=O)O2)CC[C@H]1OCCCN1CCOC[C@H]1C (stereo partly drawn)	> 9.50

---

Study target: mTORC1 (Homo sapiens, UniProt P42345+Q8N122+Q9BVC4)
Measurement notes: Inhibition of mTORC1 in human MDA-MB-468 cells assessed as measuring phosphorylated 4EBP1 incubated for 2 to 4 hrs by AlphaLISA assay
Type: cell-based
pIC50: −log10 of the molar value.
We begin with a simple list: items and their reported pIC50.
Endpoint: pIC50

Molecule	Endpoint	Observed result
CO[C@H]1C[C@@H]2CC[C@@H](C)[C@@](O)(O2)C(=O)C(=O)N2CCCC[C@H]2C(=O)O[C@H]([C@H](C)C[C@@H]2CC[C@@H](OCCCCc3cn(CCOCCOCCOCCOCCOCCOCCC(=O)NCCCCn4nc(-c5cccc(C(=O)NC6=NCCS6)c5)c5c(N)ncnc54)nn3)[C@H](OC)C2)CC(=O)[C@H](C)/C=C(\C)[C@@H](O)[C@@H](OC)C(=O)[C@H](C)C[C@H](C)C\C=C/C=C/C=C/1C	pIC50	≥ 8.50
CO[C@H]1C[C@@H]2CC[C@@H](C)[C@@](O)(O2)C(=O)C(=O)N2CCCC[C@H]2C(=O)O[C@H]([C@H](C)C[C@@H]2CC[C@@H](OCCCN3CCOC(C)(C)C3)[C@H](OC)C2)C[C@@H](O)[C@H](C)/C=C(\C)[C@@H](O)[C@@H](OC)C(NOCC(=O)NCCOCCOCCOCCOCCOCCOCCC(=O)N2CCc3cc(Cn4nc(-c5ccc6oc(N)nc6c5)c5c(N)ncnc54)ccc3C2)[C@H](C)C[C@H](C)C\C=C/C=C/C=C/1C (stereo partly drawn)	pIC50	≥ 8.50
CO[C@H]1C[C@@H]2CC[C@@H](C)[C@@](O)(O2)C(=O)C(=O)N2CCCC[C@H]2C(=O)O[C@H]([C@H](C)C[C@@H]2CC[C@@H](OCc3cccc(-c4cnc(N5CCN(C(=O)CCc6cn(CCOCCOCCC(=O)NCCCCn7nc(-c8ccc9nc(N)oc9c8)c8c(N)ncnc87)nn6)CC5)nc4)c3)[C@H](OC)C2)CC(=O)[C@H](C)/C=C(\C)[C@@H](O)[C@@H](OC)C(=O)[C@H](C)C[C@H](C)C\C=C/C=C/C=C/1C	pIC50	≥ 8.50
